molecular target: Solute carrier family 22 member 6 (Rattus norvegicus, UniProt O35956); experiment: TP_TRANSPORTER: inhibition of PAH uptake (PAH: 2 uM, Valproic acid; 2000 uM) in Xenopus laevis oocytes; type: functional, cell-based, Oocyte; settings: probe PAH (2 uM)
Sequence (O35956 whole entry): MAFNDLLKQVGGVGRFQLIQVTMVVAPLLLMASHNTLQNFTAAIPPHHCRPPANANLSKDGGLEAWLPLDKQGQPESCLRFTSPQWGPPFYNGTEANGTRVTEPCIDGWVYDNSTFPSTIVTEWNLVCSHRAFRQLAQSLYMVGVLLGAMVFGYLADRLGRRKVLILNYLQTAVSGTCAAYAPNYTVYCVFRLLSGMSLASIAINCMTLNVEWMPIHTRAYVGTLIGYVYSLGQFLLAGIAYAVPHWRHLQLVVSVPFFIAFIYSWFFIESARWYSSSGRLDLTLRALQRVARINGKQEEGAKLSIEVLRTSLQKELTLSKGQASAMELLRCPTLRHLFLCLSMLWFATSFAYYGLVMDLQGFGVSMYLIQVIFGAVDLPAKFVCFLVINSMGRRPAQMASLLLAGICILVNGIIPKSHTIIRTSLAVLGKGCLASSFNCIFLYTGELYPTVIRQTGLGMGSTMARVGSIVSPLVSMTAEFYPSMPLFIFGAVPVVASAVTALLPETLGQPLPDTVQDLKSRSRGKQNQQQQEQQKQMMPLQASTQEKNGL
MEASURE: inhibition at 2000 µM

Result for CCCC(CCC)C(=O)O , tested on Solute carrier family 22 member 6 (Rattus norvegicus, UniProt O35956), inhibition at 2000 µM: > 85%

----------
target: Solute carrier family 22 member 6 (Rattus norvegicus, UniProt O35956); assay: TP_TRANSPORTER: uptake in Xenopus laevis oocytes; format: functional, cell-based; conditions: oocyte

{"CHEMICAL_SMILES": "Nc1nc2c(ncn2[C@@H]2O[C@@H]3COP(=O)(O)O[C@H]3[C@H]2O)c(=O)[nH]1", "Activity": "substrate [+]"}
{"CHEMICAL_SMILES": "O=c1[nH]c(=O)c2[nH]c(=O)[nH]c2[nH]1", "Activity": "substrate [+]"}
{"CHEMICAL_SMILES": "O=C(O)CCC(=O)C(=O)O", "Activity": "substrate [+]"}

----------
biological target: Solute carrier family 22 member 6 (Rattus norvegicus); assay: TP_TRANSPORTER: inhibition of PAH uptake (PAH: 2 uM, Nalidixate; 2000 uM) in Xenopus laevis oocytes; format: functional, cell-based, Oocyte; conditions: probe PAH (2 uM)
MEASURE: inhibition at 2000 µM

The recorded inhibition at 2000 µM for CCn1cc(C(=O)O)c(=O)c2ccc(C)nc21 is > 85%

----------
target: Solute carrier family 22 member 6 (Rattus norvegicus); experiment: TP_TRANSPORTER: inhibition of PAH uptake (PAH: 2 uM, Ethacrynic acid; 2000 uM) in Xenopus laevis oocytes; format: functional, cell-based, Oocyte; conditions: probe PAH (2 uM)
MEASURE: inhibition at 2000 µM

The recorded inhibition at 2000 µM for C=C(CC)C(=O)c1ccc(OCC(=O)O)c(Cl)c1Cl is > 85%
